# Test system: NCI-H226 lung
# TEST DETAILS: NCI-60 one-dose screen, 48 h
# TEST CONDITIONS: 10 µM unless noted
Compounds without any hit were thinned out: in the full panel of roughly 83,000, 20% have a hit. Active and inactive are the calls of the source. The calls were made as follows: active = growth percent below 10; inactive = the rest.
Outcomes you can answer with include only these: 1.0 = active, 0.0 = inactive

INSERT INTO results (compound, assigned_label) VALUES
  ('COc1ccc(-c2cc(-c3ccccc3)nc(N3CCN(CCNc4ccnc5cc(Cl)ccc45)CC3)n2)cc1', 0.0),
  ('Cc1cc2c(cc1C)N(C(=O)CCl)CC(=O)N2', 0.0),
  ('O=C(/C=C/c1ccc(Oc2ccc(Br)cc2)cc1)c1ccc(Br)cc1', 0.0),
  ('C=C1C(=O)O[C@H]2[C@H]1CC/C(CNC(=O)c1c[nH]c3ccc(F)cc13)=C\CC[C@@]1(C)O[C@@H]21', 0.0),
  ('CCN1CCN(CC(=O)Nc2ccc(-c3cn4c(n3)sc3cc(Oc5ccnc(C(=O)NC)c5)ccc34)cc2)CC1', 0.0);

Exam item: In this assay, the call recorded for "COc1ccc(/C=C/C(=O)c2cc(OC)c(OC)c(OC)c2)cc1OCC(=O)Nc1nc2ccc(OC(F)(F)F)cc2s1" was what?
Marked response: 0.0

Exam item: # lookup: test call for "C=C1CC[C@@H]2C(C)(C)[C@@H](O)CC[C@@]2(C)[C@@H]1COc1ccc2ccc(=O)oc2c1"
Marked response: 0.0

Exam item: Check the results log: what was the call for "CN1C(=O)/C(=C/c2ccc(C(=O)Nc3ncc(Cc4cccc(Cl)c4)s3)cc2)SC1=S" ?
Marked response: 0.0

Exam item: Per the assay record, what outcome was assigned to "Cn1cc(-c2ccc(-c3cn(C)c4ccc(Cl)cc34)[nH]2)c2cc(Cl)ccc21" ?
Marked response: 1.0

Exam item: Tell me the assay call for "COc1ccc(C[n+]2c3ccccc3n3c4ccc(N)cc4ccc32)c(OC)c1OC" please.
Marked response: 0.0

Exam item: Recorded call for "Cc1ccc(S(=O)(=O)c2nc(-c3ccccc3)oc2Sc2nc3ccccc3s2)cc1" ?
Marked response: 0.0

Exam item: Please share the test call associated with COC(=O)c1nc(-c2ccccc2)oc1S(=O)(=O)NCC(c1ccc(Cl)cc1)N1CCOCC1 (configuration not stated) .
Marked response: 0.0
